# Test system: rat brain mitochondria
# ASSAY_COMMENT: Ca2+-induced swelling of mitochondria (MPT pore opening)
# Format: biochemical, Wistar rats
# TEST_CONDITIONS: rat brain mitochondria, 100 μM compound
Below, each of the compounds is paired with its reported A540 increase in mitochondrial suspension after addition of 100 μM of compound value.

Below, each entry is followed by its recorded A540 increase in mitochondrial suspension after addition of 100 μM of compound result.
Cc1ccc2c(c1)c1c(n2CCc2nc(-c3ccccc3)cs2)CCN(C)C1: 30 rel.units
CN1CCc2c(c3ccccc3n2CCc2noc(-c3ccncc3)n2)C1: 1 rel.units
Cc1ccc2c(c1)c1c(n2CCc2ccc(C)nc2)CCN(C)C1 [Dimebon, dimebon, reference compound]: 1 rel.units
Cc1ccc2c(c1)c1c(n2CCc2noc(-c3ccccc3)n2)CCN(C)C1: 14 rel.units

Now turn to the next compound.
Prompt: Using known records, supply A540 increase in mitochondrial suspension after addition of 100 μM of compound for COc1ccc2c(c1)c1c(n2CCc2nc(-c3ccccc3)cs2)CCN(C)C1
Completion: 1.5 rel.units

----------
# MEASURED_TARGET: human recombinant adrenergic α2A receptor (Homo sapiens, UniProt P08913)
# Construct: expressed in transfected cells; host or cells: insect Sf9 cells
# Sequence (P08913 1-465): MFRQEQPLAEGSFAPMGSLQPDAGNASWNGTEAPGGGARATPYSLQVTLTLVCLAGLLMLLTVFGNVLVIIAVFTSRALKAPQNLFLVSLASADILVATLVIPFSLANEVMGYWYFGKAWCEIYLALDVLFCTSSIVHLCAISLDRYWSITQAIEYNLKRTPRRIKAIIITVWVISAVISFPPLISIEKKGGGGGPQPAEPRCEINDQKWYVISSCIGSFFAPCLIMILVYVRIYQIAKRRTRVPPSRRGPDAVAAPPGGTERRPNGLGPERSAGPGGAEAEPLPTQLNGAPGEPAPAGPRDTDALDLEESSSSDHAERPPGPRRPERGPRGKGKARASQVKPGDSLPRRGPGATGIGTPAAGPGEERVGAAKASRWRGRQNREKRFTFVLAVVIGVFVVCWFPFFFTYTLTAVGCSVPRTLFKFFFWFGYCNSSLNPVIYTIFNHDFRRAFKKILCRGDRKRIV
# ASSAY_COMMENT: Adrenergic α2A radioligand binding ([3H]MK-912)
# Design: concentration or dose not given beside the values
# TEST_CONDITIONS: percent inhibition of specific binding
Outcome: met for Inhibition of ligand binding, Adren. alpha2A of at least 20%; not met for anything lower.

These recorded examples may help you get a feel for the data.
Cc1ccc2c(c1)c1c(n2CC(=O)N2CCCC(C)C2)CCN(C)C1 (centres unmarked): not met
CCOC(=O)c1ccc(CCn2c3c(c4cc(C)ccc42)CN(C)CC3)cn1: met
CN1CCc2c(c3cc(Cl)ccc3n2CC(=O)N2CCNC(=O)C2)C1: met
CN1CCc2c(c3cc(Cl)ccc3n2CC(=O)N2CCSCC2)C1: not met

Proceed to the following item.
Prompt: Decide: Inhibition of ligand binding, Adren. alpha2A of CN1CCc2c(c3cc(Cl)ccc3n2CCn2cccc2)C1 >= 20%?
Completion: met

----------
# MEASURED_TARGET: human recombinant serotonin (5-Hydroxytryptamine) 5-HT2A receptor (Homo sapiens)
# Construct: expressed in transfected cells; host or cells: CHO-K1 cells
# Sequence (P28223 whole entry): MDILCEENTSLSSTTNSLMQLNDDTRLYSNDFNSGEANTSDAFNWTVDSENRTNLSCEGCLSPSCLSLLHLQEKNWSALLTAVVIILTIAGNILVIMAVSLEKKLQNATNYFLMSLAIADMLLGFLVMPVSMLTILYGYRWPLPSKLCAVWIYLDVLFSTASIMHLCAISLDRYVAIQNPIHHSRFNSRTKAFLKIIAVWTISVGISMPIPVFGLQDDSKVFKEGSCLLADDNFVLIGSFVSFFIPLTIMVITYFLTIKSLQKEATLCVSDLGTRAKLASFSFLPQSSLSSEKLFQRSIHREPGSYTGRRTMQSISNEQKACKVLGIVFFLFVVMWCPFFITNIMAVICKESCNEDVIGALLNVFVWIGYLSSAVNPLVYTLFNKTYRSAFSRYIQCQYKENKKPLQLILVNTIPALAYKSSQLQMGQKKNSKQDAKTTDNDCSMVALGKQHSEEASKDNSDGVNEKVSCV
# ASSAY_COMMENT: Serotonin 5-HT2A radioligand binding ([3H]Ketanserin)
# TEST_CONDITIONS: percent inhibition of specific binding
Category key, based on recorded Inhibition of ligand binding, Ser. 5-HT2A: range A = under 40%, range B = from 40% up to 90%, range C = 90% and over

These recorded examples may help you get a feel for the data.
CCOC(=O)N1CCc2c(c3cc(C)ccc3n2CCc2ccccc2)C1: range A
CCOc1ccc(CCn2c3c(c4cc(C)ccc42)CN(C)CC3)cc1: range C
Cc1ccc2c(c1)c1c(n2CCc2ccc(C)nc2)C(Br)C(=O)N(C)C1 (stereo not shown): range A
Cc1ncc(CCn2c3c(c4cc(Cl)ccc42)CN(C)CC3)cn1: range B
CCN1CCc2c(c3cc(C)ccc3n2CCc2ccncc2)C1: range B

Prompt: Record CCc1ccc(CCn2c3c(c4cc(C)ccc42)CN(C)CC3)cn1 — which class?
Completion: range C

Prompt: Record CCc1ccc2c(c1)c1c(n2CCc2ccc(C)nc2)CCN(C)C1 — which class?
Completion: range B

Prompt: Record Cc1ccc2c(n1)c1c(n2CCc2ccc(C(F)(F)F)nc2)CCN(C)C1 — which class?
Completion: range A

Prompt: Record CCOC(=O)N1CCc2c(c3cc(Br)ccc3n2CCc2ccc(C)nc2)C1 — which class?
Completion: range A

Prompt: Record CCN1CCc2c(c3cc(C)ccc3n2CCc2ccccn2)C1 — which class?
Completion: range B

Prompt: Record CN1CCc2c(c3cc(Cl)ccc3n2CCc2cccnc2)C1 — which class?
Completion: range B

Prompt: Record Cc1ccc2c(c1)c1c(n2CC(C)c2ccc(F)cc2)CCN(C)C1 (stereo not shown) — which class?
Completion: range C

Prompt: Record CCOC(=O)N1CCc2c(c3cc(-c4cccnc4)ccc3n2CCc2ccc(C)nc2)C1 — which class?
Completion: range A

Prompt: Record Cc1ccc(CCn2c3c(c4cc(C(F)(F)F)ccc42)CN(C)CC3)cn1 — which class?
Completion: range A

Prompt: Record CC(C)c1ccc2c(c1)c1c(n2CCc2ccc(C(F)(F)F)nc2)CCN(C)C1 — which class?
Completion: range B

Prompt: Record Cc1ccc(CCn2c3c(c4ccccc42)CN(C)CC3)cc1 — which class?
Completion: range C

Prompt: Record CN1CCc2c(c3cc(Cl)ccc3n2CCc2cncc(Cl)c2)C1 — which class?
Completion: range C

Prompt: Record Cc1ccc2c(c1)c1c(n2CCc2ccc(C(C)C)nc2)CCN(C)C1 — which class?
Completion: range C
